molecular target: T1, CD3 expressed on cell-surface of primary human T cells (human, UniProt P07766 23-207; P04234 22-171); experiment: flow cytometry competition vs murine SP34-AF488 on human T cells, average
T1 construct: also called cell-surface CD3; human CD3
T1 sequence (P07766 23-207 limits assumed, chain 1 of 2): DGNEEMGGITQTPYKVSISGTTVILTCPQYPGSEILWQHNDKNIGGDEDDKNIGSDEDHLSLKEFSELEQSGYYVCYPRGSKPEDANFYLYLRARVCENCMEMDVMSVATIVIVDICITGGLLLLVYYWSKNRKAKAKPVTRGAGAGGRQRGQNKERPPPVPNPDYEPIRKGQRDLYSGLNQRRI
T1 sequence (P04234 22-171 limits assumed, chain 2 of 2): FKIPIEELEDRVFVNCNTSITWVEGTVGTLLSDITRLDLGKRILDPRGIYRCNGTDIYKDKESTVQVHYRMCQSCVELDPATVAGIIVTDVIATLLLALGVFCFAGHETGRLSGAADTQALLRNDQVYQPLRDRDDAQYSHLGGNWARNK
Recorded IC50 for the following binders
Readout Type: IC50

1. mSP34 Fab-HF (Fab, V domains shown, also called mSP34 chimeric Fab) VH: EVKLLESGGGLVQPKGSLKLSCAASGFTFNTYAMNWVRQAPGKGLEWVARIRSKYNNYATYYADSVKDRFTISRDDSQSILYLQMNNLKTEDTAMYYCVRHGNFGNSYVSWFAYWGQGTLVTVSA VL: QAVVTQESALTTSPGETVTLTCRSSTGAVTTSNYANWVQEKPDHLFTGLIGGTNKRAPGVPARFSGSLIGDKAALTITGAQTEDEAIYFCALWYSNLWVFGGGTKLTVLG = 0.7 µg/mL
2. huSP34.2.6 Fab-HF (Fab, V domains shown) VH: EVQLVESGGGLVQPGGSLRLSCAASGFTFSTYAMNWVRQAPGKGLEWVGRIRSKYNNYATYYAASVKGRFTISRDDSKNSLYLQMNSLKTEDTAMYYCVRHGNFGNSYVSWFAVWGQGTLVTVSS VL: QAVVTQPPSLTVSPGGTVTLTCGSSTGAVTTGHYANWVQQKPGQAPRGLIGGTSNRAPGVPARFSGSLSGGKAALTISGAQPEDEAEYYCALWYSARWVFGGGTKLTVL = 4.04 µg/mL
